Reference source for all entries: patent US20210253718A1

Target: T1, FZD3 cysteine-rich domain (CRD), MYC-tagged and GPI-anchored on CHO cells (human, UniProt Q9NPG1 24-150, GPI anchor)
T1 construct: domain: cysteine-rich domain (CRD); also called FZD3 CRD; CHO-myc-FZDGPI; not shown: MYC tag and GPI anchor signal
T1 sequence (looked up): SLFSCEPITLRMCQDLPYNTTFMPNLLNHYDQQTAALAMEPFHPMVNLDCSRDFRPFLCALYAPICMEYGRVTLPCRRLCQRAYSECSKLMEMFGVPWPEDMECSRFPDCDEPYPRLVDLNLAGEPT
Test: flow cytometry, CHO-CRD cells;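 note: flow cytometry of Fab binding to CHO cells overexpressing a Frizzled CRD, with binding defined as median fluorescence over twice that of CHO cells lacking any Frizzled CRD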
Measured metric: median fluorescence
Answers are plain numbers.

A selection of reference data follows.
Fab-2917 (Fab, V domains shown, Fab; also called Fv-2917) VH: EVQLVESGGGLVQPGGSLRLSCAASGFNFSSSSIHWVRQAPGKGLEWVASISSSYGYTYYADSVKGRFTISADTSKNTAYLQMNSLRAEDTAVYYCARAVWYYWWVWGGFDYWGQGTLVTVSS VL: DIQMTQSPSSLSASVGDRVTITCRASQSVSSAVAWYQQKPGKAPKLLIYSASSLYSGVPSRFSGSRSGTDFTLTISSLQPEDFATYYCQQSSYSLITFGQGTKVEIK = 3.46
Fab-2935 (Fab, V domains shown, Fab; also called Fv-2935) VH: EVQLVESGGGLVQPGGSLRLSCAASGFNIYYYYIHWVRQAPGKGLEWVASIYPSSGSTSYADSVKGRFTISADTSKNTAYLQMNSLRAEDTAVYYCARAAFDYWGQGTLVTVSS VL: DIQMTQSPSSLSASVGDRVTITCRASQSVSSAVAWYQQKPGKAPKLLIYSASSLYSGVPSRFSGSRSGTDFTLTISSLQPEDFATYYCQQWYGGYALITFGQGTKVEIK = 4.49

Proceed to the following item.
Request: // returns reported median fluorescence for input Fab-2900 (Fab, V domains shown, Fab; also called Fv-2900) VH: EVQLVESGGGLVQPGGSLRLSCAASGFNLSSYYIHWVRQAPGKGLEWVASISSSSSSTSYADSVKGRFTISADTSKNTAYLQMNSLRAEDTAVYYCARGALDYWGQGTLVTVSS VL: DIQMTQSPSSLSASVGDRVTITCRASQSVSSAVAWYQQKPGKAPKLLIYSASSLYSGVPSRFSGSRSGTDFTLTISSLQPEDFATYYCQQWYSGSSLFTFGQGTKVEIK
Result: 4.26
